molecular target: pre-pro-insulin glargine
quantity measured: desThr (area %)
Answers are plain numbers, in area %.

trypsin variant SEQ ID NO: 57 (protein) IVGGYTCAANSIPYQVSLNSGSHRCGGSLINSQWVVSAAHCYKSRIQVRLGEHNIHVLEGNEQFINAAKIITHPNFNGNTLDNDIMLIKLSSPATLNSRVATVSLPRSCAAAGTECLISGWGNTKSSGSSYPSLLQCLKAPVLSDSSCKSSYPGQITGNMICVGFLEGGKDACQGDSGGPVVCNGQLQGIVSSGYGCAQKNKPGVYTKVCNYVNWIQQTIAAN
2.3

Batch of 4 proteins: report desThr for each.
1. trypsin variant SEQ ID NO: 107 (protein) IVGGYTCAANSIPYQVSLNSGSHRCGGSLINSQWVVSAAHCYKPRIQVRLGEHNIHVLEGNEQFINAAKIITHPNFNPNTLDNDIMLIKLSSPATLNSHVATVSLPTSCAAAGTECLISGWGNTCSSGSSMPSLLQCLKAPVLSDSSCKSSYPGQITGNMICVGFLEGGADACQGDSGGPVVCNGQLQGIVSSGYGCAQKNKPGVYTKVCNYVNWIQQTIAAN
2. trypsin variant SEQ ID NO: 84 (protein) IVGGYTCAANSIPYQVSLNSGSHRCGGSLINSQWVVSAAHCYKPRIQVRLGEHNIHVLEGNEQFINAAKIITHPNFNPNTLDNDIMLIKLSSPATLNSNVATVSLPTSCAAAGTECLISGWGNTSSSGSSMPSLLQCLKAPVLSDSSCKSSYPGQITGNMICVGFLEGGKDSCQGDSGGPVVCNGQLQGIVSSGYGCAQKNKPGVYTKVCNYVNWIQQTIAAN
3. trypsin variant SEQ ID NO: 113 (protein) IVGGYTCAANSIPYQVSLNSGSHRCGGSLINSQWVVSAAHCYKPRIQVRLGEHNIHVLEGNEQFINAAKIITHPNFNGNTLDNDIMLIKLSSPATLNSAVATVSLPTSCAAAGTECLISGWGNTASSGSSYPSLLQCLKAPVLSDSSCKSSYPGQITGNMICVGFLEGGADACQGDSGGPVVCNGQLQGIVSSGYGCAQKNKPGVYTKVCNYVNWIQQTIAAN
4. trypsin variant SEQ ID NO: 77 (protein) IVGGYTCAANSIPYQVSLNSGSHRCGGSLINSQWVVSAAHCYKPRIQVRLGEHNIHVLEGNEQFINAAKIITHPNFNGNTLDNDIMLIKLSSPATLNSHVATVSLPTSCAAAGTECLISGWGNTCSSGSSMPSLLQCLKAPVLSDSSCKSSYPGQITGNMICVGFLEGGKDACQGDSGGPVVCNGQLQGIVSSGYGCAQKNKPGVYTKVCNYVNWIQQTIAAN

A.
1.3
1.6
1.7
1.6
